Tested system: T1, ITGA2 protein on the surface of human tumor cells (human, UniProt P17301 30-1181)
T1 construct: whole, on cells; Endogenously expressed; the cell line is named under assay or readout; also called Integrin alpha-2; ITGA2-positive HuCCT1 cells
T1 sequence (looked up): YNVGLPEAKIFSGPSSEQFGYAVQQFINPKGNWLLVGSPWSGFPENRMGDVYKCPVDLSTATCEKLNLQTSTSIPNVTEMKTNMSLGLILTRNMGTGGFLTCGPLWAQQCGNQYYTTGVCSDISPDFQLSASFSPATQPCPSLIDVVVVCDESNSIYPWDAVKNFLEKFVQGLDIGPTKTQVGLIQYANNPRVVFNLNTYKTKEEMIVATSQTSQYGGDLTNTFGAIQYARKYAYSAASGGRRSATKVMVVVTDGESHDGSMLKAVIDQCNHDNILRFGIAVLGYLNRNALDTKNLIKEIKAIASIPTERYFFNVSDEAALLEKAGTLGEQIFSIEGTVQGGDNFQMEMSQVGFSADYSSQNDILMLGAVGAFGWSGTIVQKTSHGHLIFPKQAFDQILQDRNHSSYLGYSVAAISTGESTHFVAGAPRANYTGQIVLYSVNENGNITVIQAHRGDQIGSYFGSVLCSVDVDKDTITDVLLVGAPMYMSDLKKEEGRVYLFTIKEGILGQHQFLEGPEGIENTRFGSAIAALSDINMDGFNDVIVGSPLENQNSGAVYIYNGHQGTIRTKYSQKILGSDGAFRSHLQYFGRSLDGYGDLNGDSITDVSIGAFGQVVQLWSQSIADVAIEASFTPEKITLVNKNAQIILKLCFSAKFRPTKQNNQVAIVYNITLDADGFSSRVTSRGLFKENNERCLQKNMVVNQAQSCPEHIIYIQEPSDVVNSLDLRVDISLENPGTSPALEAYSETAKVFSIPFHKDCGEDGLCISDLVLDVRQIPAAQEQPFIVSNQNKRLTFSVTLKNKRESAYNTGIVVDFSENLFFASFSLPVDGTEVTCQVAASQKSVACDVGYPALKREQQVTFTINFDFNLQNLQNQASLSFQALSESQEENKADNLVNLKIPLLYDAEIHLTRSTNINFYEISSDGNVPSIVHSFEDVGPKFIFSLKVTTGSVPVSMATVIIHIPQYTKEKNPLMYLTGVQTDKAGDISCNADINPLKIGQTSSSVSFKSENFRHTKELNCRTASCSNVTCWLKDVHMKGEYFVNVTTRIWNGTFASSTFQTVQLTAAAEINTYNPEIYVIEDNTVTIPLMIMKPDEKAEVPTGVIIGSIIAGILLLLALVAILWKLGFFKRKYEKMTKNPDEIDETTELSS
Assay summary: flow cytometry on HuCCT1 cells

>  <Binder>
Humanized antibody FS002-A208-H3L4 (antibody, human IgG1, kappa, V domains shown, Humanized IgG1 kappa) VH: QVQLVQSGAEVKKPGASVKVSCKASGYTFTDYEIHWVRQAPGQGLEWIGAIDPETGGTNYNQKFNDRVTLTADKSISTAYMELSRLRSDDTAVYYCSRSGYYVSNYESYAMDYWGQGTTVTVSS VL: DIQMTQSPSSLSASVGDRVTITCRASQNVGTNVAWYQQKPEKAPKSLIYSASYRFSGVPSRFSGSGSGTDFTLTISSLQPEDFATYYCQQYNIYPLSFGGGTKLELKR

>  <EC50, pM>
587

$$$$
>  <Binder>
Humanized antibody FS002-A153-H5L4 (antibody, human IgG1, kappa, V domains shown, Humanized IgG1 kappa) VH: QVQLVQSGAEVKKPGASVKVSCKASGYTFTDYEMHWVRQAPGQGLEWMGTIDPETGGTTYAQKFQGRVTMTADTSISTAYMELSRLRSDDTAVYYCARSGYYVSSYESYAMDYWGQGTTVTVSS VL: DIVMTQSPPTLSVSPGERVTMSCKSSQSLLNSGNQKNYLTWYQQKPGQAPRLLIYGASTRESGVPDRFSGSGSGTDFTLTISSLQPEDFAVYYCQNDYSYPFTFGGGTKLEIKR

>  <EC50, pM>
487

$$$$
>  <Binder>
Humanized antibody FS002-A208-H5L4 (antibody, human IgG1, kappa, V domains shown, Humanized IgG1 kappa) VH: QVQLVQSGAEVKKPGASVKVSCKASGYTFTDYEIHWVRQAPGQGLEWMGAIDPETGGTNYAQKFQGRVTMTADTSISTAYMELSRLRSDDTAVYYCSRSGYYVSNYESYAMDYWGQGTTVTVSS VL: DIQMTQSPSSLSASVGDRVTITCRASQNVGTNVAWYQQKPEKAPKSLIYSASYRFSGVPSRFSGSGSGTDFTLTISSLQPEDFATYYCQQYNIYPLSFGGGTKLELKR

>  <EC50, pM>
627

$$$$
>  <Binder>
Chimeric mouse antibody FS002-A103 (antibody, human IgG1, kappa, V domains shown, Chimeric; expressed in ExpiCHO-S) VH: QVQLQQSGAELVRPGASVTLSCKASGYTFTDYEMHWVKQTPVHGLEWIGVIDPETGGTTYNQKFNDKATLTADKSSSTAYMDLRSLTSEDSAVYYCSRSGYYVSSYESYAMDYWGQGTSVTVSS VL: DIVMTQSPKSMSMSVGERVTLSCKASENVGTYVSWYQQKPEQSPKLLIYGASTRESGVPDRFTGSGSGTDFTLTISSVQAEDLAVYYCQNDYSYPFTFGSGTKLEIKR

>  <EC50, pM>
633

$$$$
>  <Binder>
Humanized antibody FS002-A226-H5L4 (antibody, human IgG1, kappa, V domains shown, Humanized IgG1 kappa) VH: QVQLVQSGAEVKKPGASVKVSCKASGYTFTDYEIHWVRQAPGQGLEWMGAIDPETGGTNYAQKFQGRVTMTADTSISTAYMELSRLRSDDTAVYYCSRSGYYVSNYESYAMDYWGQGTTVTVSS VL: DIQLTQSPSSLSASVGDRVTITCRASQDIKSYLSWYQQKPGKAPKLLIYDTSNLASGVPSRFSGSGSGTDFTLTISSLQPEDFATYYCQQWSSYPFTFGGGTKLEIKR

>  <EC50, pM>
647

$$$$
